We begin with a simple list: items and their reported growth.
Tested on: COLO 205 colon
Assay: NCI-60 one-dose screen, 48 h (100 = growth as untreated, 0 = no growth, -100 = all killed)
Details: 10 µM unless noted
About 83,000 compounds went through this panel and 20% of them were active in at least one assay; those are over-represented in the sample as a whole.
The response must be a number in % with no trailing unit.

See these solved cases before continuing.
[
  {
    "molSmiles": "O=C(CSc1nccc(=O)[nH]1)Nc1ccc(-c2nc3ccccc3[nH]2)cc1",
    "growth (%)": 113
  },
  {
    "molSmiles": "O=C(CCCN1C(=O)/C(=C/c2ccccc2F)SC1=S)N1CCOCC1",
    "growth (%)": 126
  },
  {
    "molSmiles": "Clc1ccc2c(NCCCn3ccnc3)c3oc4ccc(Cl)cc4c3nc2c1",
    "growth (%)": 96.5
  },
  {
    "molSmiles": "C[C@@H]1CN(c2ccc3ncc(C#Cc4cncc(C(=O)Nc5ccc(CN6CCN(C)CC6)c(C(F)(F)F)c5)c4)n3n2)C[C@H](C)O1",
    "growth (%)": -76.8
  },
  {
    "molSmiles": "CS(=O)(=O)Nc1ccc(-c2nn(-c3ccc(S(C)(=O)=O)cc3)cc2/C=C/C(=O)c2ccc(NC(=O)CO[N+](=O)[O-])cc2)cc1",
    "growth (%)": 114
  }
]

[Q] Input `Cc1ccc2ccc3ccc(C)nc3c2n1.Cc1ccc2ccc3ccc(C)nc3c2n1.Oc1c(Cl)cc(Cl)c2ccc(CN3CCCCC3)nc12.[Ru]` , output reported growth.
[A] -74.2

[Q] Input `O=C(CSc1nc2sc3c(c2c(=O)n1-c1ccc(Cl)cc1)CCCC3)N/N=C/c1ccc(F)cc1` , output reported growth.
[A] 117

[Q] Input `Clc1ccc(-c2cn3cc(Cc4ccc(Cl)c(Cl)c4)sc3n2)cc1` , output reported growth.
[A] 42.7

* * *

Test system: SK-OV-3 ovarian
Experiment: NCI-60 one-dose screen, 48 h
Conditions: 10 µM unless noted
This is part of a sample that, as a whole, favours compounds with a hit. Of some 83,000 tested, about 20% had one in any assay. Active and inactive are the calls of the source. How the source made its calls: active means growth percent below 10; inactive means the rest.
Would you mind answering with one of these outcomes? label 1 for active, label 0 for inactive

[
  {
    "compound": "N#Cc1ccc(/C=N/NC(=O)c2[nH]c3ccc(Br)cc3c2-c2ccccc2)s1",
    "classification": "label 0"
  },
  {
    "compound": "Clc1ccc2c(NCCCN3CCOCC3)c3oc4ccc(Cl)cc4c3nc2c1",
    "classification": "label 0"
  },
  {
    "compound": "Nc1cc(-c2c[nH]c3ccc(F)cc23)nc2cc(-c3c[nH]c4ccc(F)cc34)nn12",
    "classification": "label 0"
  }
]

[Q] Name the outcome recorded for `CC(C)NC(=O)c1cc(-c2ccc(NC(=O)Nc3ccc(N4CCOCC4)c(C(F)(F)F)c3)cc2)nc2cccnc12` in the assay.
[A] label 0

[Q] Name the outcome recorded for `NS(=O)(=O)c1cccc(Nc2nc(SCC(=O)c3ccc([N+](=O)[O-])cc3)nc3ccccc23)c1` in the assay.
[A] label 0

[Q] Name the outcome recorded for `O=c1[nH]c2ccccc2cc1CSc1ccccc1Nc1nccc(-c2ccc(C(F)(F)F)cc2)n1` in the assay.
[A] label 0

[Q] Name the outcome recorded for `COc1cccc(COc2ccc(/C=C3/C(=O)Nc4cc(Cl)ccc43)cc2)c1` in the assay.
[A] label 0

[Q] Name the outcome recorded for `O=C1/C(=C/C2=Cc3ccccc3OC2)SC(=S)N1c1ccc(F)cc1` in the assay.
[A] label 0

[Q] Name the outcome recorded for `OC1CCN(CCCOc2c3ccc(Cl)cc3nc3c2oc2ccccc23)CC1` in the assay.
[A] label 1

[Q] Name the outcome recorded for `CCN(CC)c1ccc(C=O)c(OCc2cn(CC(=O)Nc3ccc(Cl)cc3)nn2)c1` in the assay.
[A] label 0
